The origin of these recorded values is ChEMBL document CHEMBL1123918.

- TESTED SYSTEM: Thromboxane-A synthase (Rattus norvegicus, UniProt P49430)
- Sequence (P49430 whole entry): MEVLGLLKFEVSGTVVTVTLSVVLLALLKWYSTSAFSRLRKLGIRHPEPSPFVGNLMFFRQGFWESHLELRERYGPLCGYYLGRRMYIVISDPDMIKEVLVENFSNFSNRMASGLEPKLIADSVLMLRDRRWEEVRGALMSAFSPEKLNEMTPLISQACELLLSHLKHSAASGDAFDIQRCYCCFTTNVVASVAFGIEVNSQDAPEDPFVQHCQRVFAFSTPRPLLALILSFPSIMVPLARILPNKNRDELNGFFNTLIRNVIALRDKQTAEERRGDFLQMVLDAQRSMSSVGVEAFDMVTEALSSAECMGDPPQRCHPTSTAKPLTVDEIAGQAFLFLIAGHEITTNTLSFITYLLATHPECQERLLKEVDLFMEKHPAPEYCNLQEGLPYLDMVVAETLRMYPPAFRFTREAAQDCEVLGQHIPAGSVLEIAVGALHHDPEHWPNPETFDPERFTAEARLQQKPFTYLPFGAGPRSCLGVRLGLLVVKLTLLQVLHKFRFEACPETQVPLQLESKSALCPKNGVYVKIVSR
pIC50: −log10 of the molar value.
EXPERIMENTAL ENDPOINT: pIC50

Answered cases to consult:
CC(Cn1ccnc1)Cn1nnc2ccc(Cl)cc2c1=O (centres undefined) :: 6.05
Cc1ccc2[nH]c(=O)n(CCC(C)n3ccnc3)c(=O)c2c1 (centres undefined) :: 7.15
Cc1ccc2nnn(CCCCn3ccnc3)c(=O)c2c1 :: 7.22
O=c1[nH]c2ccc(Br)cc2c(=O)n1CCCCn1ccnc1 :: 6.10
O=c1[nH]c2c(C(F)(F)F)cccc2c(=O)n1CCCCn1ccnc1 :: 7.30

A: Cc1ccc2[nH]c(=O)n(CCCCn3ccnc3)c(=O)c2c1
B: Cc1ccc(N)c(C(=O)NCC(C)Cn2ccnc2)c1 (centres undefined)
Of A versus B , which is the one with smaller reported pIC50? I would appreciate it if you answered with the label of your choice. B
(B: 5.89, A: 7.30)

1: O=c1[nH]c2ccccc2c(=O)n1CCCCCCn1ccnc1
2: O=c1[nH]c2ccccc2c(=O)n1CCCCCn1ccnc1
Sorting by pIC50 in descending order, would 1 or 2 appear first? I would appreciate it if you answered with the label of your choice. 1
